# TEST: Human HepG2 cell viability assay in 384 well format
# Format: toxicity, cell-based
# Set-up: dose 125 nL, time 70.5 hour; concentration not given beside the values
# ASSAY SETUP: HepG2 cells, read-out: Inhibition
This section presents compounds with their documented cytotoxicity at 70.5 h values.
Give the value, in units of %, as a plain number.

Observe how each entry below is paired with its result.
- COMPOUND: "Cn1ncc(C(=O)N2CCCC(n3cccn3)C2)c1C1CC1 (stereo unspecified)"
  SCALE UNIT: "%"
  cytotoxicity at 70.5 h: -4.62
- COMPOUND: "Cc1ccsc1C(=O)N1CCCn2nnc(Cn3cccn3)c2C1"
  SCALE UNIT: "%"
  cytotoxicity at 70.5 h: 9.85
- COMPOUND: "Cc1nnc2n1CCN(C(=O)c1cc(C)n(-c3cccnc3)c1C)C2"
  SCALE UNIT: "%"
  cytotoxicity at 70.5 h: -1.82
- COMPOUND: "COc1cccc(-n2cc(-c3ccnc(N[C@H](CO)C(C)C)n3)cn2)c1"
  SCALE UNIT: "%"
  cytotoxicity at 70.5 h: -2.44
- COMPOUND: "CCN(C)S(=O)(=O)N(CC)Cc1cccc(-c2ccncc2)c1"
  SCALE UNIT: "%"
  cytotoxicity at 70.5 h: -4.01

# ---- query compound ----
Determine from records and report cytotoxicity at 70.5 h for CCOc1ncnc2c1CCN(C(=O)c1cnccn1)CC2
1.88
